The measurements presented in this section are drawn from paper doi:10.1101/2021.08.19.457009.

Assayed system: T1, human 6His-14-3-3ζ (human, UniProt P63104 1-245)
T1 sequence (looked up): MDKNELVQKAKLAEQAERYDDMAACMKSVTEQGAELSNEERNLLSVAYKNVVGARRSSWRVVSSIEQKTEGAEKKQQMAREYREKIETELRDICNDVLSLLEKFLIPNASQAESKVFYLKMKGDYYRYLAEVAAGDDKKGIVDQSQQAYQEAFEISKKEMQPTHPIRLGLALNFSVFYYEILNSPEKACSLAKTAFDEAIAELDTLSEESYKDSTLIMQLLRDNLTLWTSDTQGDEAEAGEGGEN
Method: ITC
Non-standard residues stand in square brackets, D forms with d. No end group written: not given here. pS = N[C@@H](COP(=O)(O)O)C(=O)O
Entries and their pKd
Note on units: pKd is unitless, being -log10 of a concentration expressed in mol/L.

Some entries whose results are on file:
Binder	pKd
VRPLSA[pS]QPSL [HCN1 phospho-peptide B]	4.60
TLFRQM[pS]SGAI [HCN1 phospho-peptide C]	4.82

Asked: // fetch pKd given entry SRMRTQ[pS]PPVY [HCN1 phospho-peptide A]
Given back: 4.80
